- Tested on: rat hind paw edema
- ASSAY_REMARKS: Carrageenin-induced edema assay
- Format: in vivo
- CONDITION_SET: po, 200 mg/Kg/os, 3 hours after carrageenin, tested compounds as sodium salts
Reported inhibition in vivo at 200 mg/kg values are given for each entry in this list.
Write the number in % without appending the unit.

# count of solved cases: 4
Q: Please tell me the measured inhibition in vivo at 200 mg/kg for `O=C(O)Cc1ccc2c3c(ccc2c1)OCCC3` ; system: rat hind paw edema.
Ans: 64

Q: Please tell me the measured inhibition in vivo at 200 mg/kg for CCC1CCc2cc(CC(=O)O)ccc2O1 (centres unmarked) ; system: rat hind paw edema.
Ans: 31

Q: Please tell me the measured inhibition in vivo at 200 mg/kg for CCC1Cc2cc(CC(=O)O)ccc2O1 (centres unmarked) ; system: rat hind paw edema.
Ans: 68

Q: Please tell me the measured inhibition in vivo at 200 mg/kg for `O=C(O)Cc1ccc2c3c(ccc2c1)OCC3` ; system: rat hind paw edema.
Ans: 51

Please examine the following record next.
Q: Please tell me the measured inhibition in vivo at 200 mg/kg for CCCCC1C(=O)N(c2ccccc2)N(c2ccccc2)C1=O [Phenylbutazone, reference compound] ; system: rat hind paw edema.
Ans: 42
